# reported emission maximum; entries follow
ASSAY DETAILS: solvent given as SMILES
COND: in CC(C)=O
Enter your answer as a number in nm; do not include the unit.

Use the examples below as a reference point.
COMPOUND STRUCTURE STRING: COc1ccc(C#Cc2nc3ccccc3nc2-c2cn(C)c3ccccc23)cc1
UNIT TAG: nm
emission maximum: 513
--
COMPOUND STRUCTURE STRING: CC1=CC(C)=[N+]2C1=C(c1ccc(N3CCOCC3)cc1)c1c(C)cc(C)n1[B-]2(F)F
UNIT TAG: nm
emission maximum: 516
--
COMPOUND STRUCTURE STRING: CN(C)CCNc1ccc([N+](=O)[O-])cc1[N+](=O)[O-]
UNIT TAG: nm
emission maximum: 401
--
COMPOUND STRUCTURE STRING: CC(=O)Nc1ccc(S(=O)(=O)O)c(/N=N/c2c(O)c3ccccc3n(C)c2=O)c1
UNIT TAG: nm
emission maximum: 516
--
COMPOUND STRUCTURE STRING: CN(C)c1ccc(/C=C2\CC/C(=C\c3ccc(C#N)cc3)C2=O)cc1
UNIT TAG: nm
emission maximum: 718
--
COMPOUND STRUCTURE STRING: O=C1/C(=C\c2ccc3oc4ccccc4c3c2)S(=O)(=O)c2ccccc21
UNIT TAG: nm
emission maximum: 458
--
COMPOUND STRUCTURE STRING: Cc1cc(C2(c3cc(C)c(O)c(Br)c3)OS(=O)(=O)c3ccccc32)cc(Br)c1O
UNIT TAG: nm
emission maximum: 490
--
COMPOUND STRUCTURE STRING: CCC1=C(C)C2=C(C)c3cc(I)c(I)n3[B-](F)(F)[N+]2=C1C
UNIT TAG: nm
emission maximum: 544.5

# input for lookup
Req: I have this compound here, `CCCCN1\C(=C/C=C/C=C/C2=[N+](CCCC)c3ccc4ccccc4c3C2(C)C)C(C)(C)c2c1ccc1ccccc21` , and I need its recorded emission maximum.
Resp: 701

* * *

# reported emission maximum; entries follow
ASSAY DETAILS: solvent given as SMILES
COND: in CC#N
Report the figure along with its unit, number first.

COMPOUND: COc1cc(N(c2ccccc2)c2ccccc2)ccc1C=C(C#N)C#N
emission maximum: 581 nm

Req: I have this compound here, `CN(C)CCNc1ccc([N+](=O)[O-])cc1[N+](=O)[O-]` , and I need its recorded emission maximum.
Resp: 399 nm

Req: Try `N#Cc1cc2nc3c(nc2cc1C#N)C1c2ccc(N(c4ccccc4)c4ccccc4)cc2C3c2ccc(N(c3ccccc3)c3ccccc3)cc21` next.
Resp: 492 nm

Req: Try `COc1ccc(-n2nc(C(=O)N3CCCC3)c(N3CCCC3)n2)cc1` next.
Resp: 412 nm

Req: Try `CC1=C2C3=C(CCc4ccccc43)C(C)=[N+]2[B-](F)(F)n2c(C)c3c(c21)-c1ccccc1CC3` next.
Resp: 599 nm

Req: Try `Cc1ccc(-c2sc(/C(C#N)=C/c3ccc(C#N)cc3)nc2-c2ccc(Cl)cc2)cc1` next.
Resp: 535 nm

Req: Try CC(=O)OC[C@H]1O[C@@H](OCC#Cc2ccc(C3=C4C(C)=CC(/C=C/c5ccc(N(C)C)cc5)=[N+]4[B-](F)(F)n4c(/C=C/c5ccc(N(C)C)cc5)cc(C)c43)cc2)[C@H](OC(C)=O)C(OC(C)=O)[C@@H]1OC(C)=O (stereo partly drawn) next.
Resp: 769 nm

Req: Try `Cc1ccc(C2=C3C=CC(Cl)=[N+]3[B-](F)(F)n3c(Cl)ccc32)cc1` next.
Resp: 520 nm

* * *

# reported emission maximum; entries follow
ASSAY DETAILS: solvent given as SMILES
COND: in CCO
Enter your answer as a number in nm; do not include the unit.

Use the examples below as a reference point.
MOLECULE: COc1ccc2c3c(cccc13)C(=O)N(C)C2=O
emission maximum (nm): 444
--
MOLECULE: CC(=O)c1nc(-c2ccc(N(C)C)cc2)oc1C
emission maximum (nm): 377

Req: I have this molecule here, `c1ccc(-n2c3ccccc3c3ccccc32)cc1` , and I need its recorded emission maximum.
Resp: 344

Req: Try `Cc1cc(=O)oc2cc(O)ccc12` next.
Resp: 380

Req: Try `O=C(N/N=C/c1ccccc1O)c1cccc2ccccc12` next.
Resp: 429

Req: Try `OC1(c2ccc(-c3cccs3)s2)CCCCC1` next.
Resp: 465

Req: Try `CCC1=C(C)C2=C(C)c3cc(I)c(I)n3[B-](F)(F)[N+]2=C1C` next.
Resp: 548

Req: Try `CCC1=C(C)C2=Cc3cc(I)c(I)n3[B-](F)(F)[N+]2=C1C` next.
Resp: 555

Req: Try `c1ccc2c(-c3ccc(-c4nnc(-c5ccc(-c6nnc(-c7ccc(-c8cccc9ccccc89)s7)o6)cc5)o4)s3)cccc2c1` next.
Resp: 459

Req: Try `O=C1c2cccc3c(NCc4ccccn4)c4ccccc4c(c23)C(=O)N1Cc1ccccn1` next.
Resp: 615

Req: Try `Cc1ccc(C(=O)OCc2c(C)c(=O)n3c(=O)c(C)c(C)n23)cc1` next.
Resp: 460

Req: Try `Cn1cc(-c2nc3ccccc3nc2/C=C/N2CCCC2)c2ccccc21` next.
Resp: 548.05

* * *

ASSAY DETAILS: solvent given as SMILES
COND: in CS(C)=O
QUANTITY MEASURED: emission maximum (nm)
Enter your answer as a number in nm; do not include the unit.

Use the examples below as a reference point.
COMPOUND STRUCTURE STRING: CSc1ccc(-c2nc3sc4ccccc4c3s2)cc1
UNIT TAG: nm
emission maximum: 431
--
COMPOUND STRUCTURE STRING: CCCCN1/C(=C/C=C/C2=[N+](C)c3ccccc3C2(C)C)C(C)(C)c2cc(OC)ccc21
UNIT TAG: nm
emission maximum: 585
--
COMPOUND STRUCTURE STRING: CCCN1/C(=C/C=C(/C=C/c2sc3ccccc3[n+]2CCC)c2ccc([N+](=O)[O-])cc2)Sc2ccccc21
UNIT TAG: nm
emission maximum: 673

Req: I have this molecule here, `CCCCN1/C(=C/C=C/C2=[N+](C)c3ccccc3C2(C)C)C(C)(C)c2c1ccc1ccccc21` , and I need its recorded emission maximum.
Resp: 586

Req: Try `Nc1ccccc1C(=O)O` next.
Resp: 400

Req: Try `COc1cc2cc(-c3cc4cc(OC)c(OC)cc4oc3=O)oc2cc1OC` next.
Resp: 500

Req: Try `CCN(CC)c1ccc2c(c1)oc(=O)c1c(=O)oc3c(OC)cccc3c12` next.
Resp: 572

Req: Try `CN(C)c1ccc(/C=C2\CC/C(=C\c3ccc(C#N)cc3)C2=O)cc1` next.
Resp: 731

* * *

ASSAY DETAILS: solvent given as SMILES
COND: in Cc1ccccc1
# reported emission maximum; entries follow
Enter your answer as a number in nm; do not include the unit.

COMPOUND STRUCTURE STRING: CC1(C)c2ccccc2N(c2ccc(-c3ncccn3)cc2)c2ccccc21
QUANTITY MEASURED: emission maximum
NUMERIC RESULT: 448
//
COMPOUND STRUCTURE STRING: C(=C\c1ccc(N(c2ccc(/C=C/c3ccc(N(c4ccccc4)c4ccccc4)cc3)cc2)c2ccc(-c3nc4ccccc4nc3-c3ccc(N(c4ccc(/C=C/c5ccc(N(c6ccccc6)c6ccccc6)cc5)cc4)c4ccc(/C=C/c5ccc(N(c6ccccc6)c6ccccc6)cc5)cc4)cc3)cc2)cc1)/c1ccc(N(c2ccccc2)c2ccccc2)cc1
QUANTITY MEASURED: emission maximum
NUMERIC RESULT: 521
//
COMPOUND STRUCTURE STRING: COC(=O)c1cc(=O)n(C)c2cc(-c3cc4c5c(c3)CCCN5CCC4)sc12
QUANTITY MEASURED: emission maximum
NUMERIC RESULT: 529
//
COMPOUND STRUCTURE STRING: CC(C)[Si](C#Cc1c2ccccc2c(C#Cc2c3ccccc3c(C#Cc3c4ccccc4c(C#Cc4c5ccccc5c(C#C[Si](C(C)C)(C(C)C)C(C)C)c5ccccc45)c4ccccc34)c3ccccc23)c2ccccc12)(C(C)C)C(C)C
QUANTITY MEASURED: emission maximum
NUMERIC RESULT: 609

# input for lookup
Req: I have this molecule here, `Cc1ccc2c(c1)c1cc(Br)ccc1n2-c1c(C#N)c(-n2c3ccc(Br)cc3c3cc(Br)ccc32)c(-n2c3ccc(Br)cc3c3cc(Br)ccc32)c(C#N)c1-n1c2ccc(Br)cc2c2cc(Br)ccc21` , and I need its recorded emission maximum.
Resp: 546

* * *

# reported emission maximum; entries follow
ASSAY DETAILS: solvent given as SMILES
COND: in ClCCl
Enter your answer as a number in nm; do not include the unit.

Use the examples below as a reference point.
COMPOUND: C[C@H](Nc1c2ccc(=[N+]3CCCCC3)cc-2oc2cc(N3CCCCC3)ccc12)C(=O)OC(C)(C)C
UNIT TAG: nm
NUMERIC RESULT: 544

COMPOUND: CCCCN1C(=O)C2=C(c3ccc(-c4ccccc4)cc3)NC(=O)C2=C1c1ccc(-c2ccccc2)cc1
UNIT TAG: nm
NUMERIC RESULT: 545

COMPOUND: CC1(C)c2ccccc2-c2cc3c(cc21)c1ccccc1n3-c1ccc2ncccc2c1
UNIT TAG: nm
NUMERIC RESULT: 446

Req: I have this compound here, `O=c1c2ccccc2sc2ccc(-n3c4ccccc4c4ccccc43)cc12` , and I need its recorded emission maximum.
Resp: 483.5

Req: Try `CCN(CC)c1ccc2c(-c3ccccc3C(=O)O)c3c([o+]c2c1)/C(=C/c1ccc(N(C)C)cc1)CCC3` next.
Resp: 757

Req: Try CCCCC(CC)COc1cc(OCC(CC)CCCC)c2c#cc3ccc4oc5ccc(c#cc6cc(c#cc7ccc8oc9ccc(c#cc1c2)cc9c8c7)c(C(CCCC)OCCC)cc6C(CCCC)OCCC)cc5c4c3 (stereo not drawn) next.
Resp: 377

Req: Try `O=Cc1cnc(-c2c3ccccc3cc3ccccc23)nc1` next.
Resp: 531

Req: Try `CC[N+](CC)=c1ccc2cc3c(=O)oc4cc5c(cc4c3oc-2c1)CCCN5C` next.
Resp: 648
